- System: Hs-578T
- assay comment: NCI tumour cell line growth inhibition, 48 h
Calls of active or inactive are those of the source. Cut-off read from the data, not from the text of the source: active = GI50 up to about 1.1 µM and inactive = higher.
Log the outcome using a class from active, inactive

{"columns": ["compound", "label value"],
 "data": [
  ["CC(=O)n1nc(-c2ccccc2)n(/N=C/c2ccc([N+](=O)[O-])o2)c1=O", "inactive"],
  ["N#C/C(=N/Nc1[nH]cnc1C(N)=O)C(=O)Nc1ccccc1", "inactive"],
  ["CC1CN=C(N(C(=O)Nc2ccccc2)c2ccc(Cl)c(Cl)c2)S1 (stereo not given)", "inactive"],
  ["COc1cc(OCCN(C)C)c2[nH]c(C(=O)N3CC(CCl)c4c3cc(N)c3ccccc43)cc2c1 (stereo not given)", "active"]
]}

Below: the item to evaluate.
For this compound, state the assay outcome: COC(O)C(=O)c1ccc2c(c1)CC1(C2)Cc2cc3c(cc2C1=O)CCC3 (stereo not given)
inactive

====

- System: LOX IMVI
- assay comment: NCI tumour cell line growth inhibition, 48 h
Activity calls are given as the source filed them. Rule as the data show it: active = GI50 up to about 1.1 µM and inactive = higher.
readout kind: GI50

{"columns": ["compound", "GI50"],
 "data": [
  ["CO/N=C1\\CC(C)N2C(=O)C(C(C)C)NC(=O)C(NC(=O)c3c4nc5c(C(=O)NC6C(=O)NC(C(C)C)C(=O)N7C(C)CC(O)C7C(=O)N(C)CC(=O)N(C)C(C(C)C)C(=O)OC6C)ccc(C)c5oc-4c(C)c(=O)c3N)C(CO)OC(=O)C(C)N(C)C(=O)CN(C)C(=O)C12 (configuration not stated)", "0.156 µM (active)"],
  ["COC(=O)C1OC(O[C@H]2CC[C@]3(C)[C@H]4CC=C5[C@@H]6CC(C)(C)CC[C@]6(C(=O)OC6OCC(O)C(O)C6OC6OC(C)C(OC7OCC(O)C(O)C7O)C(OC7OCC(O)(CO)C7O)C6O)[C@H](O)C[C@@]5(C)[C@]4(C)CC[C@H]3C2(C)C)C(O)C(O)C1O (some centres not stated)", "7.64 µM (inactive)"],
  ["COc1cc(N/N=C/C#N)cc(OC)c1OC", "1.54 µM (inactive)"]
]}

Given the compound "CCN(CC)C1=Nc2ccccc2-n2ccnc2C1" , what is its reported GI50?
> 100 µM (inactive)

Now the same for "COC(=O)c1ccc2c(c1)CCN2C(=O)c1cc2c(cc1Br)OCO2"
3.11 µM (inactive)

// query: CCN1C(=O)C(N=[N+]=[N-])(c2ccccc2)C(=O)c2ccccc21 (configuration not stated)
> 100 µM (inactive)

// next record "CC1=C(C(=O)Nc2ccccc2)C(c2ccc(Cl)c(Cl)c2)C(C(=O)Nc2ccccc2)=C(C)N1"
14.2 µM (inactive)

====

- Test system: OVCAR-8
- assay comment: NCI tumour cell line growth inhibition, 48 h
The source made the active and inactive calls. Cut-off read from the data, not from the text of the source: active = GI50 up to about 1.1 µM and inactive = higher.
// reported GI50 per item

Some solved cases for reference:
{"columns": ["compound", "readout kind", "assay value"],
 "data": [
  ["Nc1nc(Cl)cc(NCCCCCCCCCCCCNc2cc(Cl)nc(N)n2)n1", "GI50", "10.1 µM (inactive)"],
  ["Cc1sc2nc(N(C)C)oc(=O)c2c1C", "GI50", "73.5 µM (inactive)"],
  ["N#Cc1c(O)c(/N=N/c2ccccc2F)c(=O)n2c1[nH]c1ccccc12", "GI50", "39.3 µM (inactive)"],
  ["CCSC(=O)C1(C)OC2CCCCC2C1=O (stereo unspecified)", "GI50", "> 100 µM (inactive)"],
  ["CC(=O)OCCn1c(Cc2ccc([N+](=O)[O-])cc2)nn(C(C)=O)c1=O", "GI50", "> 100 µM (inactive)"]
]}

Turning now to a further compound:
Name the reported GI50 value associated with the compound "CC(=O)N1CCC(=O)/C(=C/c2ccccc2)C1"
21.2 µM (inactive)

Where do these numbers come from? They come from ChEMBL document CHEMBL1201862.
